Measured Log DR, listed per entry.
# MEASURED_ON: human CRHR2 (Homo sapiens)
# Construct: expressed in transfected cells
# Sequence (Q13324 1-411): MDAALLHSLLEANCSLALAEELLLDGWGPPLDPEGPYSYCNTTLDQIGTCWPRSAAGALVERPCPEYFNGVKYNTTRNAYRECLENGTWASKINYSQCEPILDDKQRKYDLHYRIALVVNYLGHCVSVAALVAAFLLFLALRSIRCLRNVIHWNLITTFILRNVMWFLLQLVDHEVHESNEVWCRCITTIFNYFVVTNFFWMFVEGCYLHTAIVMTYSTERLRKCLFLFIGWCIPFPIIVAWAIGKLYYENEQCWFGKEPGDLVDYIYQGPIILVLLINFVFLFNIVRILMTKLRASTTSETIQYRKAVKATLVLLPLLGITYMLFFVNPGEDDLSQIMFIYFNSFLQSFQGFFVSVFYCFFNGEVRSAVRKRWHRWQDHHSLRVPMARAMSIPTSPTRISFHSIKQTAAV
# TEST: cAMP assay in h-CRHR2 transfected SK-N-MC cells
# Type: cell-based
# EXPERIMENTAL_PARAMETERS: Table 13; h-SCP control pA50 minus test compound pA50 within same assay batch
No end group written: not given here.

TKFTLSLDVPTNCMNLLFNIAKAKNLRAQAAANAHLMAQI-NH2 [SEQ ID NO: 14]	>2

So, TKFTLSLDVPTNIMNLLFNIAKAKNLRAQAAACAHLMAQI-NH2 [SEQ ID NO: 34] ? Its Log DR was >3.19

So, TKFTLSLDVPTNIMNLLFNIAKAKNLRAQAAANAHLCAQI-NH2 [SEQ ID NO: 38] ? Its Log DR was >2.95

# credit: patent US10040838B2
